# Assay System: PDE4D2 (Homo sapiens, UniProt Q08499)
# Sequence (Q08499 303-809 limits assumed): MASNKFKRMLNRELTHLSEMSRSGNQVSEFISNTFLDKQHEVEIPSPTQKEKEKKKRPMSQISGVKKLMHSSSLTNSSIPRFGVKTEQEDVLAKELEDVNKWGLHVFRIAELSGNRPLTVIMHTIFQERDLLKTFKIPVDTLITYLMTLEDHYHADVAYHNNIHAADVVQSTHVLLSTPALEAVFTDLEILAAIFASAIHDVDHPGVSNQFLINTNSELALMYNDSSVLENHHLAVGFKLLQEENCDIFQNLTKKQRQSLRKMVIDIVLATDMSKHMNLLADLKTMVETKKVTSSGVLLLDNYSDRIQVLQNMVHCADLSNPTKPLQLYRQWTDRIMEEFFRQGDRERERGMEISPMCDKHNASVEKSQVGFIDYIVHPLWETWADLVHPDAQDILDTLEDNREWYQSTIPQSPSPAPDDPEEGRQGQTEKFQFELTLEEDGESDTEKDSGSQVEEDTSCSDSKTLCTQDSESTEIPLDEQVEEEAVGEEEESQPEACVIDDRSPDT
# Assay Explanation: PDE4D2 enzyme experiment (AMP-Glo)
# Experimental Conditions: read-out: PDE4D2 IC50 Binding; enzyme assay
What IC50 was measured for each of the following?
Give bare numbers, in nM.

Example results:
// IC50 (PDE4D2 (Homo sapiens, UniProt Q08499)) for [O-][S+]1CCc2nc(N3CCc4cc(N5CCOCC5)ccc4C3)nc(NC3(CO)CCC3)c21 (centres unmarked) = 0.697

The reported IC50 value, PDE4D2 (Homo sapiens, UniProt Q08499), for [O-][S+]1CCc2nc(N3CCc4cc(N5CCC(C(F)(F)F)C5)ccc4C3)nc(NC3(CO)CCC3)c21 (centres unmarked) reads 1.76

Form: item C[C@H]1c2ccc(N3CCCC3)cc2CCN1c1nc2c(c(NC3(CO)CCC3)n1)[S+]([O-])CC2 (some centres unmarked) ; test system PDE4D2 (Homo sapiens, UniProt Q08499); IC50: 0.993

The measured IC50 that C[C@@H]1c2ccc(Br)cc2CCN1c1nc2c(c(NC3(CO)CCC3)n1)[S+]([O-])CC2 (some centres unmarked) showed for PDE4D2 (Homo sapiens, UniProt Q08499) is 2.92

# map each compound to its IC50
1. [O-][S+]1CCc2nc(N3CCc4cc(N5CC6CC5C6)ccc4C3)nc(NC3(CO)CCC3)c21 (centres unmarked)
2. [O-][S+]1CCc2nc(N3CCc4cc(Cl)ccc4[C@H]3C3CC3)nc(NC3(CO)CCC3)c21 (some centres unmarked)
3. [O-][S+]1CCc2nc(N3CCc4cc(N5CCC6(CC5)COC6)ccc4C3)nc(NC3(CO)CCC3)c21 (centres unmarked)

1. 0.502
2. 1.98
3. 0.453

Hello, I would appreciate it if you could give IC50 for each entry below.
1. C[C@H]1CCCN1c1ccc2c(c1)CCN(c1nc3c(c(NC4(CO)CCC4)n1)[S+]([O-])CC3)C2 (some centres unmarked)
2. CN1C[C@@H]2CCN(c3ccc4c(c3)CCN(c3nc5c(c(NC6(CO)CCC6)n3)[S+]([O-])CC5)C4)[C@@H]2C1 (some centres unmarked)
3. [O-][S+]1CCc2nc(N3CCc4cc(N5C[C@@H]6[C@@H](CO)[C@@H]6C5)ccc4C3)nc(NC3(CO)CCC3)c21 (some centres unmarked)
4. [O-][S+]1CCc2nc(N3CCc4cc(N5C[C@H]6C[C@@H]5CO6)ccc4C3)nc(NC3(CO)CCC3)c21 (some centres unmarked)
5. NC(=O)Cc1ccc(Nc2nc(N3CCc4cc(Cl)ccc4C3)nc3c2[S+]([O-])CC3)cc1 (centres unmarked)
6. [O-][S+]1CCc2nc(N3CCc4cc(N5CCCC5C(F)(F)F)ccc4C3)nc(NC3(CO)CCC3)c21 (centres unmarked)
7. O=S1(=O)C[C@H]2C[C@@H]1CN2c1ccc2c(c1)CCN(c1nc3c(c(NC4(CO)CCC4)n1)[S+]([O-])CC3)C2 (some centres unmarked)

[0.24, 0.584, 0.231, 0.52, 0.424, 0.653, 0.3]
